The values you see were collected from patent US12581252B2.

# subjectOfTest: H1047R PIK3CA enzyme (Homo sapiens, UniProt P42336, H1047R)
# Sequence (P42336 whole entry H1047R): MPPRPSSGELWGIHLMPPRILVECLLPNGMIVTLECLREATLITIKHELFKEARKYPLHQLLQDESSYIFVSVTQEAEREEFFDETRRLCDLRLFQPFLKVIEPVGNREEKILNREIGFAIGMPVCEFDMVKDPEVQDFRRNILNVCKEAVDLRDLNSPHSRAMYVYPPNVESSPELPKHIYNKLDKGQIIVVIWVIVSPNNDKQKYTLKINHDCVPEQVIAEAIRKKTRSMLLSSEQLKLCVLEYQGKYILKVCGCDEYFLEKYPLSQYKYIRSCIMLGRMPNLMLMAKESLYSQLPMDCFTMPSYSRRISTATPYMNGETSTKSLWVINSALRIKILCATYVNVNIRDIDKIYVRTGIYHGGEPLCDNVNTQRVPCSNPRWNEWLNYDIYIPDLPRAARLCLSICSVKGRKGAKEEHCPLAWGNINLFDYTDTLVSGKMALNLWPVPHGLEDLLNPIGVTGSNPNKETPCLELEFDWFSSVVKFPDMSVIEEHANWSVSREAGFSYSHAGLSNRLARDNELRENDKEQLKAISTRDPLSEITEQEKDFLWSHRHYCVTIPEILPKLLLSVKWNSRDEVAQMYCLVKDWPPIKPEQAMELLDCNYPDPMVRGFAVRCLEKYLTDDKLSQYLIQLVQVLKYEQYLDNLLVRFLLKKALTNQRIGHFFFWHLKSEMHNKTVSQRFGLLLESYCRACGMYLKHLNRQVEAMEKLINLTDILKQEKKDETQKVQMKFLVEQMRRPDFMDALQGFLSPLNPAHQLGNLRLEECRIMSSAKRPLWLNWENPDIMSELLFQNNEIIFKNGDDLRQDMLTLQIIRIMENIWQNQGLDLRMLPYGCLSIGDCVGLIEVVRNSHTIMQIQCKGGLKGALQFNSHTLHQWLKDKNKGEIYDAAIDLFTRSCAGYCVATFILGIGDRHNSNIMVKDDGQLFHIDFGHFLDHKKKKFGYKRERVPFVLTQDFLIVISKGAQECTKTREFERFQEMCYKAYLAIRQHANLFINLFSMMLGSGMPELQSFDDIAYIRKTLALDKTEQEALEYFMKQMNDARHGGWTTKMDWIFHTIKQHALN
# Sequence (P27986 whole entry partner): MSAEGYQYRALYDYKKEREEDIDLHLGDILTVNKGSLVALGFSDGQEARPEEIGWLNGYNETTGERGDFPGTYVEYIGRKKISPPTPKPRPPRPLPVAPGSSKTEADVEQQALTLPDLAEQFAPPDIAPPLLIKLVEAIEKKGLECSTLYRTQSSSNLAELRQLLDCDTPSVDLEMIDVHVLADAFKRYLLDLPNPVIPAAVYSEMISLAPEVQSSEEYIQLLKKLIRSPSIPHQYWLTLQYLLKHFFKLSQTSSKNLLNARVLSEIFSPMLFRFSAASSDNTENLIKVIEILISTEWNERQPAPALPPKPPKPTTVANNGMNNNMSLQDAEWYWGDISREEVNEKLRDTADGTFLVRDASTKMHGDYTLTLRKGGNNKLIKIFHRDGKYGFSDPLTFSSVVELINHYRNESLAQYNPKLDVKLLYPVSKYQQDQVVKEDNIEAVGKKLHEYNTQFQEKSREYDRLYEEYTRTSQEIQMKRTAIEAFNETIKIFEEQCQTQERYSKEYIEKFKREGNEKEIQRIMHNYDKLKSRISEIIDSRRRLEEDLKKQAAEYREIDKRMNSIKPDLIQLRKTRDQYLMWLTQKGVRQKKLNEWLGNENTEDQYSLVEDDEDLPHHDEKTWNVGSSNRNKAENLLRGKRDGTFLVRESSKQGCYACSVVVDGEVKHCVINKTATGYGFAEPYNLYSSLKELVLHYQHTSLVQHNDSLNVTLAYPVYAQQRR
# experimentDescription: ADP-Glo Biochemical PIK3CA Kinase Assay
pIC50: −log10 of the molar value.

{"compound": "Cn1nc(Nc2cc(Br)cc3c2C(c2cc(F)ccc2Cl)NC3=O)c2ccccc21 (stereo not shown)", "pIC50": "4.00 to 5.00"}
{"compound": "O=C(Nc1cccc2c1[C@H](c1cc(F)ccc1C(F)F)NC2=O)c1cc(F)cc(C(F)(F)F)c1", "pIC50": "≥ 7.00"}
{"compound": "O=C(Nc1cccc2c1C(C13CC4CC(CC(C4)C1)C3)NC2=O)c1cc(F)cc(C(F)(F)F)c1 (stereo not shown)", "pIC50": "4.00 to 5.00"}
{"compound": "Cc1ccccc1C1NC(=O)c2cccc(NC(=O)c3ccsn3)c21 (stereo not shown)", "pIC50": "4.00 to 5.00"}
{"compound": "Cn1cc(-c2cc(NC(=O)c3cc(F)cc(C(F)(F)F)c3)c3c(c2)C(=O)NC3c2cc(F)ccc2Cl)nn1 (stereo not shown)", "pIC50": "≥ 7.00"}
{"compound": "CC(C#N)n1cc(-c2cc(NC(=O)c3cc(F)cc(C(F)(F)F)c3)c3c(c2)C(=O)NC3c2cc(F)ccc2Cl)cn1 (stereo not shown)", "pIC50": "≥ 7.00"}
{"compound": "Cn1cc(-c2cc(NC(=O)c3nsc4ccccc34)c3c(n2)C(=O)N[C@H]3c2ccccc2Cl)cn1", "pIC50": "5.00 to 6.00"}

----------
Measured IC50 by item
# experimentDescription: cells
# reportedConditions: Homo sapiens, MCF-10A, read-out: MCF10A IC50

{"molecule": "Cc1ccccc1C1NC(=O)c2cccc(NC(=O)N3CC(C)(C)c4ccccc43)c21 (stereo not drawn) [Compound I-45]", "IC50": "10000 to 36000 nM"}
{"molecule": "CC1(Cc2cc(NC(=O)N3C[C@](O)(C(F)(F)F)c4cc(F)ccc43)c3c(c2)C(=O)N[C@@H]3c2cc(F)ccc2Cl)COC1 (single isomer, unassigned) [Compound I-2657]", "IC50": "< 1000 nM"}
{"molecule": "Cc1ccccc1C1NC(=O)c2cc(Br)cc(NC(=O)c3csc4ccccc34)c21 (stereo not drawn) [Compound I-29]", "IC50": "< 1000 nM"}
{"molecule": "Cc1[nH]ncc1Nc1cc(NC(=O)c2cc(F)cc(C(F)(F)F)c2)c2c(c1)C(=O)NC2c1cc(F)ccc1Cl (stereo not drawn) [Compound I-1017]", "IC50": "< 1000 nM"}
{"molecule": "O=C1N[C@H](c2cc(F)ccc2Cl)c2c(NC(=O)N3C[C@H](O)c4cc(F)ccc43)cc(-c3ccc(=O)n(C(F)F)c3)cc21 (single isomer, unassigned) [Compound I-2448]", "IC50": "1000 to 5000 nM"}
{"molecule": "N#CCCc1cc(NC(=O)N2C[C@H](O)c3cc(F)ccc32)c2c(c1)C(=O)N[C@H]2c1cc(F)ccc1Cl (single isomer, unassigned) [Compound I-2346]", "IC50": "1000 to 5000 nM"}
{"molecule": "O=C(Nc1cc(-c2ccc3ncnn3c2)cc2c1C(c1cc(F)ccc1C(F)F)NC2=O)c1cc(F)cc(C(F)(F)F)c1 (stereo not drawn) [Compound I-1057]", "IC50": "< 1000 nM"}
{"molecule": "O=C1N[C@@H](c2cc(F)ccc2Cl)c2c(NC(=O)N3C[C@](O)(C(F)(F)F)c4cc(F)ccc43)cc(Cl)nc21 (single isomer, unassigned) [Compound I-2704]", "IC50": "< 1000 nM"}
{"molecule": "O=C(Nc1cc(-c2cnn3cccnc23)cc2c1C(c1cc(F)ccc1Cl)NC2=O)c1cc(F)cc(C(F)(F)F)c1 (stereo not drawn) [Compound I-1046]", "IC50": "< 1000 nM"}
{"molecule": "[2H]C1(c2cc(F)ccc2Cl)NC(=O)c2cccc(NC(=O)N3CC(O)(C(F)(F)F)c4cc(F)ccc43)c21 (stereo not drawn) [Compound I-2648]", "IC50": "< 1000 nM"}
{"molecule": "O=C(Nc1cc(-c2cnn(C(F)F)c2)cc2c1[C@H](c1cc(F)ccc1Cl)NC2=O)c1cc(F)cc(C(F)(F)F)c1 (single isomer, unassigned) [Compound I-1740]", "IC50": "< 1000 nM"}
{"molecule": "O=C1NCc2cc(-c3cc(NC(=O)c4cc(F)cc(C(F)(F)F)c4)c4c(c3)C(=O)NC4c3cc(F)ccc3Cl)ccc2O1 (stereo not drawn) [Compound I-981]", "IC50": "< 1000 nM"}
